Target: Amine oxidase [flavin-containing] A (Homo sapiens, UniProt P21397)
Sequence (P21397 whole entry): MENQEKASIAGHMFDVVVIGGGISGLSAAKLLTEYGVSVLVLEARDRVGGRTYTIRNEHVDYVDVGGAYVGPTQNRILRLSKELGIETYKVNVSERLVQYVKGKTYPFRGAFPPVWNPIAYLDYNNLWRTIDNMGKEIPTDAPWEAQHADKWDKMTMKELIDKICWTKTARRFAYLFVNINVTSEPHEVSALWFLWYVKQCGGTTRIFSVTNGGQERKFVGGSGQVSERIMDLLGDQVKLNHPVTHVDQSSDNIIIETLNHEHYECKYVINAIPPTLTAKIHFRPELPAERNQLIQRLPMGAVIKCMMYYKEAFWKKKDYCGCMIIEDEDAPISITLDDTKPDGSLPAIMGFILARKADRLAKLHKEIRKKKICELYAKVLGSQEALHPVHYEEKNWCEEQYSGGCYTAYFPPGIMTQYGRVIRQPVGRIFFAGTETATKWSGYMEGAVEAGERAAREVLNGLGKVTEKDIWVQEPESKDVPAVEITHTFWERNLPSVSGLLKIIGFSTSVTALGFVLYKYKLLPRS
Assay: Inhibition of human recombinant MAOA
Can you tell me IC50 for the items I'm about to list?
Put down the number, then write its unit next to it.

Exam item: # input compound: NC(=O)[C@H]1CN(c2cc(F)c(C3CC[S+]([O-])CC3)c(F)c2)C(=O)O1 (stereo partly drawn) ; wanted: its IC50
Marked response: 355 µM

Exam item: Name the reported IC50 value associated with the compound `NC(=O)[C@H]1CN(c2ccc(C3CCOCC3)c(F)c2)C(=O)O1`
Marked response: 58 µM

Exam item: Entry `CC(=O)NC[C@H]1CN(c2ccc(N3CCOCC3)c(F)c2)C(=O)O1` has what IC50?
Marked response: 53 µM

* * *

Experiment: Bioavailability in Sprague-Dawley rat at 20 mg/kg, po
Assay type: ADME, organism-based
Settings: Sprague-Dawley, in vivo
Kindly state bioavailability for each of the entries shown.
Kindly provide the numeric value in % only, without the unit symbol.

Exam item: Need bioavailability, item NC(=O)[C@H]1CN(c2cc(F)c(C3CC[S+]([O-])CC3)c(F)c2)C(=O)O1 (some centres not stated)
Marked response: 65

Exam item: // query bioavailability value for entry `NC(=O)[C@H]1CN(c2ccc(C3CCS(=O)(=O)CC3)c(F)c2)C(=O)O1`
Marked response: 40

* * *

TEST READOUT: IC50

Exam item: Field: IC50 (Cytochrome P450 2C9 (Homo sapiens)). Entry: `NC(=O)[C@H]1CN(c2ccc([C@H]3CC[S@+]([O-])CC3)c(F)c2)C(=O)O1`
Marked response: > 900 µM

* * *

Assay: AUC (0 to 24 hrs) in Sprague-Dawley rat plasma at 40 mg/kg/day after 14 days
Format: ADME, organism-based
Parameters: dose 40 mg/kg/day, time < 24 hr
TEST READOUT: AUC at 24 h
Please don't drop the unit; write it after the number.

Exam item: Quick one: AUC at 24 h for `CC(=O)NC[C@H]1CN(c2ccc(N3CCOCC3)c(F)c2)C(=O)O1` ?
Marked response: 105 µg·h/mL

* * *

Give measured AUC for each item. Keep answers brief.
Experiment: AUC in Sprague-Dawley rat at 20 mg/kg, po
Assay type: ADME, organism-based, Plasma
Parameters: dose 20 mg/kg, route oral
Details: Sprague-Dawley, plasma
Give just the number in ng·h/mL; leave the unit off.

Exam item: Record request: AUC value, item `NC(=O)[C@H]1CN(c2ccc(C3CCS(=O)(=O)CC3)c(F)c2)C(=O)O1`
Marked response: 8620

Exam item: // returns reported AUC for input NC(=O)[C@H]1CN(c2cc(F)c(C3CC[S+]([O-])CC3)c(F)c2)C(=O)O1 (some centres not stated)
Marked response: 15400
